These data points were gathered from patent US20200216416A1.

- system.tested: human MET kinase D1228H (Homo sapiens, UniProt P08581, D1228H)
- Construct: GST-tagged recombinant human MET kinase domain
- Sequence (P08581 1078-1345 D1228H): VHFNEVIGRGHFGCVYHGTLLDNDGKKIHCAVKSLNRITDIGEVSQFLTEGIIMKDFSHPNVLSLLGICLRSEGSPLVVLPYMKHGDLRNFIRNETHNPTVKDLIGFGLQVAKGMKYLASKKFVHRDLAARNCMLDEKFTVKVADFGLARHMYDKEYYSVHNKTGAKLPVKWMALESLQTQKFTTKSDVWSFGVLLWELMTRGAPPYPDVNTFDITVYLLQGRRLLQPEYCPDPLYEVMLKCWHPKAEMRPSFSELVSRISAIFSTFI
- assay.explanation: c-Met Enzyme Assay, D1228H mutant
- recorded.conditions: averaged IC50; D1228H 2 nM; 60-minute incubation at 22° C.; read-out: D1228 H IC50
// reported pIC50 per item
// field semantics: pIC50 = negative decimal log of concentration (mol/L)

Examples with answers:
COc1cc2nccc(Oc3ccc(NC(=O)c4cn(CC(=O)N(C)C)cc(-c5ccc(F)cc5)c4=O)nc3)c2cc1OC [Example 23]
7.94
COc1cc2nccc(Oc3ccc(NC(=O)c4c[nH]cc(-c5ccc(F)cc5)c4=O)nc3)c2cc1OC [Example 26]
7.90
COc1cc2nccc(Oc3ccc(NC(=O)c4cn(C(C)C)cc(-c5ccc(F)cc5OC)c4=O)nc3)c2cc1OC [Example 32]
8.00
COc1cc2nccc(Oc3ccc(NC(=O)c4cn(CCN(C)C)cc(-c5ccc(F)c(F)c5)c4=O)nc3)c2cc1OC [Example 43]
8.80

Briefly, pIC50 measured for COc1cc2nccc(Oc3ccc(NC(=O)c4cn(CCC(C)C)cc(-c5ccc(F)cc5F)c4=O)nc3)c2cc1OC [Example 36] : 8.74

Briefly, pIC50 measured for COc1cc2nccc(Oc3ccc(NC(=O)c4cn(CCN(C)C)cc(-c5ccc(Cl)cc5)c4=O)nc3)c2cc1OC [Example 42] : 8.62

Briefly, pIC50 measured for COc1ccc2nccc(Oc3ccc(NC(=O)c4cn(C(C)C)c(C)c(-c5ccc(F)cc5)c4=O)nc3)c2c1 [Example 33] : 8.28

Briefly, pIC50 measured for COc1cc2nccc(Oc3ccc(NC(=O)c4cn(CC(C)C)cc(-c5ccc(F)cc5)c4=O)nc3)c2cc1OC [Example 11] : 8.19

Briefly, pIC50 measured for COc1cc2nccc(Oc3ccc(NC(=O)c4cn(C(C)C)c(C)c(-c5ccc(F)c(F)c5)c4=O)nc3)c2cc1OC [Example 28] : 8.85

Briefly, pIC50 measured for CCc1c(-c2ccc(F)cc2)c(=O)c(C(=O)Nc2ccc(Oc3ccnc4cc(OC)c(OC)cc34)cn2)cn1C(C)C [Example 29] : 8.62

Briefly, pIC50 measured for COc1cc2c(Oc3ccc(NC(=O)c4cn(C(C)C)c(C)c(-c5ccc(F)cc5)c4=O)nc3)ccnc2cc1F [Example 48] : 7.92

Briefly, pIC50 measured for CNC(=O)Cn1cc(C(=O)Nc2ccc(Oc3ccnc4cc(OC)c(OC)cc34)cn2)c(=O)c(-c2ccc(F)cc2)c1 [Example 22] : 8.38

Briefly, pIC50 measured for COc1cc2nccc(Oc3ccc(NC(=O)c4cn(CCC(C)C)cc(-c5ccc(F)c(F)c5)c4=O)nc3)c2cc1OC [Example 35] : 8.08

Briefly, pIC50 measured for COc1cc2nccc(Oc3ccc(NC(=O)c4cn(CCC(C)C)cc(-c5ccc(Cl)cc5)c4=O)nc3)c2cc1OC [Example 37] : 7.98

====

- system.tested: human MET kinase Y1230S (Homo sapiens, UniProt P08581, Y1230S)
- Construct: GST-tagged recombinant human MET kinase domain; purchased Signal Chem
- Sequence (P08581 1078-1345 Y1230S): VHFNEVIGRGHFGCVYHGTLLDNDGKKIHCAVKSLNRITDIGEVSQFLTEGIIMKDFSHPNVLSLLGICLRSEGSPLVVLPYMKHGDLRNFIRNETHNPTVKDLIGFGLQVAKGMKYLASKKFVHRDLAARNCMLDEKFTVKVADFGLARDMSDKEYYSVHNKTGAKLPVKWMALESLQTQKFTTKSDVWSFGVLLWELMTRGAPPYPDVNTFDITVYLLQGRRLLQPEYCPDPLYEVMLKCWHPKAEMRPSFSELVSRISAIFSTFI
- assay.explanation: c-Met Enzyme Assay, Y1230S mutant
- Assay type: binding
- recorded.conditions: averaged IC50; Y1230S 8 nM; 60-minute incubation at 22° C.; read-out: Y1230 S IC50
property: pIC50
// field semantics: pIC50 = negative decimal log of concentration (mol/L)

Examples with answers:
COc1cc2nccc(Oc3ccc(NC(=O)c4cn(CC(C)C)cc(-c5ccc(F)cc5)c4=O)nc3)c2cc1OC
8.31
COc1cc2nccc(Oc3ccc(NC(=O)c4cn(CC(=O)N(C)C)cc(-c5ccc(F)cc5)c4=O)nc3)c2cc1OC
8.42
COc1cc2ncc(C#N)c(Oc3ccc(NC(=O)c4cn(C(C)C)cc(-c5ccc(F)cc5)c4=O)nc3)c2cc1OC
6.29
COc1cc2nccc(Oc3cnc(NC(=O)c4cn(C(C)C)c(C)c(-c5ccc(F)cc5)c4=O)nc3)c2cc1OC
8.59

Briefly, pIC50 measured for `COc1cc2nccc(Oc3ccc(NC(=O)c4cn(C5CCOCC5)cc(-c5ccc(F)cc5)c4=O)nc3)c2cc1OC` : 8.34

Briefly, pIC50 measured for `COc1cc2nccc(Oc3ccc(NC(=O)c4cn(CC(=O)N(C)C)cc(-c5ccc(F)cc5F)c4=O)nc3)c2cc1OC` : 8.22

Briefly, pIC50 measured for `COc1cc2nccc(Oc3ccc(NC(=O)c4cn(CC(=O)N5CCCC5)cc(-c5ccc(F)cc5F)c4=O)nc3)c2cc1OC` : 7.79

Briefly, pIC50 measured for `COc1cc2nccc(Oc3ccc(NC(=O)c4cn(C(C)C)cc(-c5ccc(F)cc5)c4=O)cn3)c2cc1OC` : 8.57

Briefly, pIC50 measured for `COc1cc2nccc(Oc3ccc(NC(=O)c4cn(CCN(C)C)cc(-c5ccc(F)cc5)c4=O)nc3)c2cc1OC` : 8.77

====

- system.tested: MDR1 (P-gp) (Homo sapiens)
- Construct: expressed in transfected cells; host or cells: LLC-PK1
- Sequence (P08183 whole entry): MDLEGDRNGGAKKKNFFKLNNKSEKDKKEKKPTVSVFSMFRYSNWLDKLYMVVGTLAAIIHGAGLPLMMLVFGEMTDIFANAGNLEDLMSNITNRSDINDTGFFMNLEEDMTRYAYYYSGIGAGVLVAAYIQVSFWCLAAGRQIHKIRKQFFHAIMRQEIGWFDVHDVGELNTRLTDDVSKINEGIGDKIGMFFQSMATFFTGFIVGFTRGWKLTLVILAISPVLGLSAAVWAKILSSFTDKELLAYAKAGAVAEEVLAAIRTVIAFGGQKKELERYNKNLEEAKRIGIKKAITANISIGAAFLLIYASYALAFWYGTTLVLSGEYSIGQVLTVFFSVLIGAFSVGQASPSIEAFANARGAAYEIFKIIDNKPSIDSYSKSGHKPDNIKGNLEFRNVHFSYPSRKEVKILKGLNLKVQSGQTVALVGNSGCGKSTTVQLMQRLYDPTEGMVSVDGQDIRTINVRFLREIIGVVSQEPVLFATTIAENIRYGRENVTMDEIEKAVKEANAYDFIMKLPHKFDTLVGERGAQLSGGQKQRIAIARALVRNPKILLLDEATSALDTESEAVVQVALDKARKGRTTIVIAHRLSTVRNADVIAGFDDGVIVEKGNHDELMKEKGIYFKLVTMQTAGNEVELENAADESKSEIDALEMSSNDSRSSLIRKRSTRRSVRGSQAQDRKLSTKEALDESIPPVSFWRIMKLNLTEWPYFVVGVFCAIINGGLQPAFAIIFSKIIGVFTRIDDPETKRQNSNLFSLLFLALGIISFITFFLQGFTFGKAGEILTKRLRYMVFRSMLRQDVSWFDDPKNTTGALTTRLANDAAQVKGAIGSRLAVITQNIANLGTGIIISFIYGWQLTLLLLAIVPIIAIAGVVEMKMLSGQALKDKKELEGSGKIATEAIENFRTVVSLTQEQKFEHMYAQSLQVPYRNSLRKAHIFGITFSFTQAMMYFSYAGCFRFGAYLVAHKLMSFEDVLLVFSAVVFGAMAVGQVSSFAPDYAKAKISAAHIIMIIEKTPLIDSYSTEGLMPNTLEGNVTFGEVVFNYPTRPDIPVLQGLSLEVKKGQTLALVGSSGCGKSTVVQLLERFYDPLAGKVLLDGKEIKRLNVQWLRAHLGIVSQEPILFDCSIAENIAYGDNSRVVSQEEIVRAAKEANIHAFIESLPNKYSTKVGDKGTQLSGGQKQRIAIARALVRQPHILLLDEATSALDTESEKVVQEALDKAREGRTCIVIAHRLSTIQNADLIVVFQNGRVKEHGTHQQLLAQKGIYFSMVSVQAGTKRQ
- assay.explanation: MDR1 LLC-PK1 permeability assay
- Assay type: in vitro ADME
- recorded.conditions: pig, LLC-PK1, efflux ratio = Papp(B-A)/Papp(A-B), MDR1 transfected LLC-PK1 cells; read-out: MDR1 Pe Ratio
property: efflux ratio at 2 h, 1 μM
Write no unit; give the number alone.

Examples with answers:
CCOc1ccc2nccc(Oc3ccc(NC(=O)c4cn(C(C)C)cc(-c5ccc(F)cc5)c4=O)nc3)c2c1 [Example 51]
2
COc1cc2nccc(Oc3ccc(NC(=O)c4cn(C(C)C)cc(-c5ccc(Cl)cc5)c4=O)nc3)c2cc1OC [Example 5]
2.6
CCCn1cc(C(=O)Nc2ccc(Oc3ccnc4cc(OC)c(OC)cc34)cn2)c(=O)c(-c2ccc(F)cc2)c1 [Example 10]
2.7

Attention now turns to another entry.
Briefly, efflux ratio at 2 h, 1 μM measured for COc1ccc(-c2cn(C(C)C)cc(C(=O)Nc3ccc(Oc4ccnc5cc(OC)c(OC)cc45)cn3)c2=O)c(F)c1 [Example 31] : 2

====

- system.tested: human MET kinase F1200I (Homo sapiens, UniProt P08581, F1200I)
- Construct: GST-tagged recombinant human MET kinase domain
- Sequence (P08581 1078-1345 F1200I limits assumed): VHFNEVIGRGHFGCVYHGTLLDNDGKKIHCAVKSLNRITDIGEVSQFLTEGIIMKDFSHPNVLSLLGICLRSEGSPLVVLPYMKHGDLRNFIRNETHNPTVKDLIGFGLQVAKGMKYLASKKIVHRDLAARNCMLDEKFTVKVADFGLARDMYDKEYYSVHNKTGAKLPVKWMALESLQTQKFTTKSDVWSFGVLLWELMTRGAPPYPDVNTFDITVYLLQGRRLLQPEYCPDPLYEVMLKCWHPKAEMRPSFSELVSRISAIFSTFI
- assay.explanation: c-Met Enzyme Assay, F1200I mutant
- recorded.conditions: averaged IC50; F1200I 2 nM; 60-minute incubation at 22° C.
pIC50: −log10 of the molar value.
Please note: rule met applies when pIC50 is 8 or greater, and rule not met applies otherwise.

Reference set, count: 6
COc1cc2nccc(Oc3ccc(NC(=O)c4cn(C(C)C)cc(-c5ccc(F)cc5)c4=O)nc3)c2cc1OC
rule met
COc1cc2c(Oc3ccc(NC(=O)c4cn(C(C)C)c(C)c(-c5ccc(F)cc5)c4=O)nc3)ccnc2cc1F
rule met
CC(C)n1cc(C(=O)Nc2ccc(Oc3ccnc4cc(OC(F)(F)F)ccc34)cn2)c(=O)c(-c2ccc(F)cc2)c1
rule not met
COc1cc2c(Oc3ccc(NC(=O)c4cn(C(C)C)cc(-c5ccc(F)cc5)c4=O)nc3)ccnc2cc1F
rule not met
COc1ccc(-c2cn(C(C)C)cc(C(=O)Nc3ccc(Oc4ccnc5cc(OC)c(OC)cc45)cn3)c2=O)c(F)c1
rule not met
CCOc1ccc2nccc(Oc3ccc(NC(=O)c4cn(C(C)C)cc(-c5ccc(F)cc5)c4=O)nc3)c2c1
rule not met

With those in mind, consider the next compound.
hey, is pIC50 for this one >= 8? `COc1ccc(-c2cn(C(C)C)cc(C(=O)Nc3ccc(Oc4ccnc5cc(OC)c(OC)cc45)cn3)c2=O)cc1`
rule not met

====

- system.tested: GST-tagged recombinant human TYRO3 kinase domain (Homo sapiens, UniProt Q06418)
- Construct: GST-tagged recombinant human TYRO3 kinase domain
- Sequence (Q06418 518-790 limits assumed): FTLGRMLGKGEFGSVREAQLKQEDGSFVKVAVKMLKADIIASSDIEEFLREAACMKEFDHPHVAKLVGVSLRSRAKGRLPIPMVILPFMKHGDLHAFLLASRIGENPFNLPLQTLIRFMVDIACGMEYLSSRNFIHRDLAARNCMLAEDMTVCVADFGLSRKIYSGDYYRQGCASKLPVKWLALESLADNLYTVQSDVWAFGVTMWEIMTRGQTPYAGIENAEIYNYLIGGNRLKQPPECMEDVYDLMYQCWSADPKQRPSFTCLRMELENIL
- assay.explanation: TYRO3 Enzyme Assay (LanthaScreen Eu Kinase Binding)
- recorded.conditions: averaged IC50; TYRO3 5 nM; 60-minute incubation at 22° C.; TR-FRET
property: pIC50
// field semantics: pIC50 = negative decimal log of concentration (mol/L)

Examples with answers:
COc1cc2nccc(Oc3ccc(NC(=O)c4cn(CC(=O)N5CCCC5)cc(-c5ccc(F)cc5F)c4=O)nc3)c2cc1OC [Example 14]
6.89
COc1cc2nccc(Oc3ccc(NC(=O)c4cn(CCC(C)C)cc(-c5ccc(F)cc5)c4=O)nc3)c2cc1OC [Example 34]
7.85
CNC(=O)Cn1cc(C(=O)Nc2ccc(Oc3ccnc4cc(OC)c(OC)cc34)cn2)c(=O)c(-c2ccc(F)cc2)c1 [Example 22]
7.85

Attention now turns to another entry.
Briefly, pIC50 measured for COc1cc2nccc(Oc3ccc(NC(=O)c4cn(C(C)C)c(C)c(-c5ccc(F)cc5)c4=O)nc3)c2cc1OC [Example 27] : 8.52

====

- system.tested: human MET kinase F1200I (Homo sapiens, UniProt P08581, F1200I)
- Construct: GST-tagged recombinant human MET kinase domain
- assay.explanation: c-Met Enzyme Assay, F1200I mutant
- recorded.conditions: averaged IC50; F1200I 2 nM; 60-minute incubation at 22° C.
property: IC50 (nM)
Number only, in nM; omit the unit.

COc1cc2nccc(Oc3ccc(NC(=O)c4cn(CC(=O)N5CCOCC5)cc(-c5ccc(F)cc5F)c4=O)nc3)c2cc1OC
24.4
COc1cc2nccc(Oc3ccc(NC(=O)c4cn(CCN(C)C)cc(-c5ccc(F)cc5)c4=O)nc3)c2cc1OC
3.4
COc1cc2nccc(Oc3ccc(NC(=O)c4cn(C(C)C)c(C)c(-c5ccc(F)c(F)c5)c4=O)nc3)c2cc1OC
2.4

Per the reported human MET kinase F1200I (Homo sapiens, UniProt P08581, F1200I) data, `COc1ccc2nccc(Oc3ccc(NC(=O)c4cn(C)cc(-c5ccc(F)cc5)c4=O)nc3)c2c1` has IC50 of 105
